Numbers sourced from paper PMC12136788.

- targetOrTestSystem: T1, UNK ZnF1-3 (human, UniProt Q9C0B0 31-174)
- T1 sequence: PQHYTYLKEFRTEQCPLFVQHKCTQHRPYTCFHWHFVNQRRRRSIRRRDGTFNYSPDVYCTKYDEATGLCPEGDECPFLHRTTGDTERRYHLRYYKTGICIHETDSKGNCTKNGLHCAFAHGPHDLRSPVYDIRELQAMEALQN
- methodSummary: nsRBNS (natural sequence RNA bind-n-seq); RBNS binding buffer (assumed for nsRBNS): 25 mM Tris pH 7.5, 150 mM KCl, 3 mM MgCl2, 0.01% Triton X-100, 500 ug/ml BSA, 20 U/ml SUPERase-In, 4 C; UNK is unkempt and MSI1 is Musashi-1; names of the RNAs are library labels; protein concentration not given here; high values mean tight binding
Over roughly 24,000 sequences, “enrichment r” has its median near 0.99; the highest 2% begin near 3.7. These entries were drawn from the full list.
measurementName: binding signal (enrichment R)
Answers are plain numbers, in enrichment R.

binder	binding signal / enrichment R
44041996_44042116_73_3pUTR_ENSMUSG00000034342_ENSMUST00000037644|mouse|control|control (ssRNA) RNA: GGGAGUUCUACAGUCCGACGAUCUCGGCCGCGAGCGAGGGAAUGGAGCCGGGCGAGAAGGAGGGGCCUCUCCGGCAACCACCGCCGGCGCUCGCAGCCCAGGGAGUGAGAGGGAGGCGCCCGCCCUGAGGCGCGCCCCUGCGCCAACAGAGGAUUGAGCAUCA	0.497
chr8:35901500:35901501:-_ENSMUSG00000031529_ENSMUST00000033929|mus_mus|FALSE|FALSE (ssRNA) RNA: GGGAGUUCUACAGUCCGACGAUCUAUAUAACAUGAUCUGUCUUUGUGUGUGGGACAGCCUGUUCCUCCUCCAAUUCCAUAAACAUACUGAUUGCUUUUUGAGGAGUUUUCAGCAAAGUAAAUUCCAGCUCCAAACAUCCCUCCCAACAGAGGAUUGAGCAUCA	1.03

Kindly consider the entry below.
The binder listed as chr6:40197388:40197389:+_ENSMUSG00000057716_ENSMUST00000061740|mus_mus|mus_mus_mus_hu_False|18_58 (ssRNA) RNA: GGGAGUUCUACAGUCCGACGAUCGAGACACUGGGGUGGAUUUAUUCCACCUCUGUUUGGGUGCUAGCCACUAAGACAGCUAUUUUGGGAUUCAUGGCCUUGAAUAUCAAGAGGGAAGGGACGAGAAUGGAAAGAGUCAAGAGUCAACAGAGGAUUGAGCAUCA has a reported binding signal of 1.36
